Listing of recorded IC50 by entry.
Target: MDMX (Homo sapiens)
Assay: Competitive fluorescence polarization assay for MDMX
Format: binding
Conditions: competitive FP assay, read-out: IC50 (MDMX)
Where a SMILES comes first, the peptide text is derived from it. Bridges are numbered along the chain shown (N, C = ends). [ ]: non-standard residue; d: D form. R8 = C=CCCCCCC[C@@](C)(N)C(=O)O; Cba = N[C@@H](CC1CCC1)C(=O)O; S5 = C=CCCC[C@](C)(N)C(=O)O
recorded endpoint: IC50

| compound | recorded endpoint | observed value |
| --- | --- | --- |
| CC(=O)N[C@@H](CCCNC(=N)N)C(=O)N[C@H](C(=O)N[C@@H](Cc1ccccc1)C(=O)N[C@]1(C)CCCCCCC=CCCC[C@@](C)(C(=O)N[C@@H](CO)C(=O)N[C@@H](C)C(=O)N[C@@H](C)C(N)=O)NC(=O)[C@H](CC2CCC2)NC(=O)[C@H](CCC(N)=O)NC(=O)[C@H](C)NC(=O)[C@H](Cc2c[nH]c3ccccc23)NC(=O)[C@H](Cc2ccc(O)cc2)NC(=O)[C@H](CCC(=O)O)NC1=O)[C@@H](C)O [compound 360] (Ac-RTF[R8]EYWAQ[Cba][S5]SAA-NH2; staple 4-11) | IC50 | < 10 nM |
| CC(=O)N[C@@H](CC(C)C)C(=O)N[C@H](C(=O)N[C@@H](Cc1ccccc1)C(=O)N[C@]1(C)CCCCCCC=CCCC[C@@](C)(C(=O)N[C@@H](C)C(=O)N[C@@H](C)C(=O)N[C@@H](C)C(=O)N[C@@H](C)C(=O)N[C@H](C)C(N)=O)NC(=O)[C@H](CCC(C)C)NC(=O)[C@H](CCC(N)=O)NC(=O)[C@H](C)NC(=O)[C@H](Cc2c[nH]c3ccccc23)NC(=O)[C@H](Cc2ccc(O)cc2)NC(=O)[C@H](C)NC1=O)[C@@H](C)O (single isomer, unassigned) [compound 314] | IC50 | 10 to 100 nM |
| CC(=O)N[C@@H](CC(C)C)C(=O)N[C@H](C(=O)N[C@@H](Cc1ccccc1)C(=O)N[C@]1(C)CCCCCCC=CCCC[C@@](C)(C(=O)N[C@@H](CO)C(=O)N[C@@H](CCCNC(=N)N)C(=O)N[C@@H](C)C(N)=O)NC(=O)[C@H](CC2CCC2)NC(=O)[C@H](CCC(N)=O)NC(=O)[C@H](C)NC(=O)[C@H](Cc2c[nH]c3ccccc23)NC(=O)[C@H](Cc2ccc(O)cc2)NC(=O)[C@H](CCC(=O)O)NC1=O)[C@@H](C)O [compound 365] (Ac-LTF[R8]EYWAQ[Cba][S5]SRA-NH2; staple 4-11) | IC50 | 10 to 100 nM |
| CC(=O)N[C@@H](CC(C)C)C(=O)N[C@H](C(=O)N[C@@H](Cc1ccccc1)C(=O)N[C@]1(C)CCCCCCC=CCCC[C@@](C)(C(=O)N[C@@H](C)C(=O)N[C@@H](Cc2c[nH]cn2)C(=O)N[C@@H](Cc2ccccc2)C(=O)N[C@@H](C)C(N)=O)NC(=O)[C@H](CC(C)C)NC(=O)[C@H](C)NC(=O)[C@H](C)NC(=O)[C@H](Cc2c[nH]c3ccccc23)NC(=O)[C@H](Cc2ccc(O)cc2)NC(=O)[C@H](C)NC1=O)[C@@H](C)O [compound 204] (Ac-LTF[R8]AYWAAL[S5]AHFA-NH2; staple 4-11) | IC50 | 100 to 1000 nM |

* * *

pKi overview
Biological target: MDM2 (Homo sapiens, UniProt Q00987)
Sequence (Q00987 1-125): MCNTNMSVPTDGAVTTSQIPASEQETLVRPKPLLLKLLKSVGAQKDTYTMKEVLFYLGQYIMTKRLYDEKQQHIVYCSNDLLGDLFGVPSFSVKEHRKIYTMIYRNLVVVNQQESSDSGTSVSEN
Test: Competitive fluorescence polarization assay for MDM2
Format: binding
Settings: competitive FP assay, MDM2; read-out: Ki (MDM2)
pKi: −log10 of the molar value. Where a SMILES comes first, the peptide text is derived from it. Bridges are numbered along the chain shown (N, C = ends). [ ]: non-standard residue; d: D form. R8 = C=CCCCCCC[C@@](C)(N)C(=O)O; hLeu = CC(C)CC[C@H](N)C(=O)O; S5 = C=CCCC[C@](C)(N)C(=O)O; Nle = CCCC[C@H](N)C(=O)O; Ac3c = NC1(C(=O)O)CC1

| compound | pKi |
| --- | --- |
| CCCC[C@H](NC(=O)[C@H](C)NC(=O)[C@H](C)NC(=O)[C@]1(C)CCCC=CCCCCCC[C@@](C)(NC(=O)[C@H](Cc2ccccc2)NC(=O)[C@@H](NC(=O)[C@H](CC(C)C)NC(C)=O)[C@@H](C)O)C(=O)N[C@@H](CCC(=O)O)C(=O)N[C@@H](Cc2ccc(O)cc2)C(=O)N[C@@H](Cc2c[nH]c3ccccc23)C(=O)N[C@@H](C)C(=O)N[C@@H](CCC(N)=O)C(=O)N[C@@H](CCC(C)C)C(=O)N1)C(=O)N[C@@H](C)C(=O)N[C@@H](C)C(N)=O [compound 381] (Ac-LTF[R8]EYWAQ[hLeu][S5]AA[Nle]AA-NH2; staple 4-11) | > 8.00 |
| CC(=O)N[C@@H](Cc1ccccc1)C(=O)N[C@]1(C)CCCCCCC=CCCC[C@@](C)(C(=O)N[C@@H](C)C(=O)N[C@@H](C)C(=O)N[C@@H](CCC(C)C)C(N)=O)NC(=O)[C@H](CC(C)C)NC(=O)C2(CC2)NC(=O)[C@H](CCC(=O)O)NC(=O)[C@H](Cc2c[nH]c3ccccc23)NC(=O)[C@H](Cc2ccc(O)cc2)NC(=O)[C@H](C)NC1=O [compound 17] (Ac-F[R8]AYWE[Ac3c]L[S5]AA[hLeu]-NH2; staple 2-9) | > 8.00 |

* * *

This section presents molecules with their documented pIC50 values.
Target: MDMX (Homo sapiens, UniProt O15151)
Sequence (O15151 1-125): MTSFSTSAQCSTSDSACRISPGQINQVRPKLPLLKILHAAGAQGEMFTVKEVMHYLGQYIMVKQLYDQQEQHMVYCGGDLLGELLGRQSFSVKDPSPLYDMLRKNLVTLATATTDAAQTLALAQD
Experiment: Competitive fluorescence polarization assay for MDMX
Format: binding
Conditions: IC50 (MDMX), competitive FP assay
pIC50: −log10 of the molar value. Where a SMILES comes first, the peptide text is derived from it. Bridges are numbered along the chain shown (N, C = ends). [ ]: non-standard residue; d: D form. R8 = C=CCCCCCC[C@@](C)(N)C(=O)O; S5 = C=CCCC[C@](C)(N)C(=O)O

| molecule | pIC50 |
| --- | --- |
| CC(C)C[C@H](NC(=O)CN(C)C)C(=O)N[C@H](C(=O)N[C@@H](Cc1ccccc1)C(=O)N[C@]1(C)CCCCCCC=CCCC[C@@](C)(C(=O)N[C@@H](C)C(=O)N[C@@H](C)C(=O)N[C@@H](C)C(=O)N[C@@H](C)C(=O)N[C@@H](C)C(=O)N[C@H](C)C(N)=O)NC(=O)[C@H](CC(C)C)NC(=O)[C@H](CCC(N)=O)NC(=O)[C@H](C)NC(=O)[C@H](Cc2c[nH]c3ccccc23)NC(=O)[C@H](Cc2ccc(O)cc2)NC(=O)[C@H](CCC(=O)O)NC1=O)[C@@H](C)O (single isomer, unassigned) | 7.00 to 8.00 |
| CC(=O)N[C@@H](CC(C)C)C(=O)N[C@H](C(=O)N[C@@H](Cc1ccccc1)C(=O)N[C@]1(C)CCCCCCC=CCCC[C@@](C)(C(=O)N[C@@H](CO)C(=O)N[C@@H](C)C(=O)N[C@@H](C)C(N)=O)NC(=O)[C@H](CC(C)C)NC(=O)[C@H](C)NC(=O)[C@H](C)NC(=O)[C@H](Cc2c[nH]c3ccccc23)NC(=O)[C@H](CCC(=O)O)NC(=O)[C@H](C)NC1=O)[C@@H](C)O (single isomer, unassigned) | 6.00 to 7.00 |
| CC(=O)N[C@@H](CC(C)C)C(=O)N[C@H](C(=O)N[C@@H](Cc1ccccc1)C(=O)N[C@]1(C)CCCCCCC=CCCC[C@@](C)(C(=O)N[C@@H](CO)C(=O)N[C@@H](C)C(=O)N[C@@H](C)C(N)=O)NC(=O)[C@H](CC(C)C)NC(=O)[C@H](C)NC(=O)[C@H](C)NC(=O)[C@H](Cc2c[nH]c3ccccc23)NC(=O)[C@H](Cc2c[nH]cn2)NC(=O)[C@H](C)NC1=O)[C@@H](C)O [compound 197] (Ac-LTF[R8]AHWAAL[S5]SAA-NH2; staple 4-11) | 6.00 to 7.00 |
| CC(=O)N[C@@H](CCC(=O)O)C(=O)N[C@H](C(=O)N[C@@H](Cc1ccccc1)C(=O)N[C@]1(C)CCCCCCC=CCCC[C@@](C)(C(=O)N[C@@H](C)C(=O)N[C@@H](C)C(=O)N[C@@H](C)C(=O)N[C@@H](C)C(=O)N[C@@H](C)C(=O)N[C@H](C)C(N)=O)NC(=O)[C@H](CC(C)C)NC(=O)[C@H](CCC(N)=O)NC(=O)[C@H](C)NC(=O)[C@H](Cc2c[nH]c3ccccc23)NC(=O)[C@H](Cc2ccc(O)cc2)NC(=O)[C@H](CCC(=O)O)NC1=O)[C@@H](C)O (single isomer, unassigned) | 7.00 to 8.00 |
| CC(=O)N[C@@H](CC(C)C)C(=O)N[C@H](C(=O)N[C@@H](Cc1ccccc1)C(=O)N[C@]1(C)CCCCCCCCCCC[C@@](C)(C(=O)N[C@@H](C)C(=O)N[C@@H](C)C(=O)N[C@@H](C)C(=O)N[C@@H](C)C(=O)N[C@@H](C)C(=O)N[C@H](C)C(N)=O)NC(=O)[C@H](CC(C)C)NC(=O)[C@H](CCC(N)=O)NC(=O)[C@H](C)NC(=O)[C@H](Cc2c[nH]c3ccccc23)NC(=O)[C@H](Cc2ccc(O)cc2)NC(=O)[C@H](CCC(=O)O)NC1=O)[C@@H](C)O | 6.00 to 7.00 |
| CC(=O)N[C@@H](CC(C)C)C(=O)N[C@H](C(=O)N[C@@H](Cc1ccccc1)C(=O)N[C@]1(C)CCCCCCC=CCCC[C@@](C)(C(=O)N[C@@H](C)C(=O)N[C@@H](C)C(=O)N[C@@H](C)C(=O)N[C@@H](C)C(=O)N[C@@H](C)C(=O)N[C@@H](C)C(=O)N[C@H](C)C(N)=O)NC(=O)[C@H](CC(C)C)NC(=O)[C@H](CCC(N)=O)NC(=O)[C@H](C)NC(=O)[C@H](Cc2c[nH]c3ccccc23)NC(=O)[C@H](Cc2ccc(O)cc2)NC(=O)[C@H](CCC(=O)O)NC1=O)[C@@H](C)O (single isomer, unassigned) | 7.00 to 8.00 |
